- SYSTEM UNDER TEST: UniProt P46734
- Sequence (P46734 whole entry): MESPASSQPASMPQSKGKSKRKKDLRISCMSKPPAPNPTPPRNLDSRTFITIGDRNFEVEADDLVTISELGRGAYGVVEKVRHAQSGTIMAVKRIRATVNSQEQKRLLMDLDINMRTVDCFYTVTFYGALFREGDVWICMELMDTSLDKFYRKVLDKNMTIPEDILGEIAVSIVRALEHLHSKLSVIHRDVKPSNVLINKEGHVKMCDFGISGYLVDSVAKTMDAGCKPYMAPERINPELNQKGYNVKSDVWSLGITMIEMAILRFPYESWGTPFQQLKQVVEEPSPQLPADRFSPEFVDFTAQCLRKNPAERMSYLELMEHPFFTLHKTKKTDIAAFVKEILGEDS
- MEASUREMENT PROTOCOL: pIC50, kinobeads binding competition
- SETTINGS: cell material: Lysate mix
MEASURED PROPERTY: pIC50

Take a look at these entries with their results.
{"COMPOUND": "CCNC(=O)c1cc(Nc2cc(C3CC3)[nH]n2)nc(N2CCN(Cc3ccc(S(=O)(=O)F)cc3)CC2)n1", "MEASURED PROPERTY": "pIC50", "MEASUREMENT": 4.9}
{"COMPOUND": "Cc1cc(Nc2cc(C(=O)NCCNC(=O)OC3CC/C=C/CCC3)nc(N3CCN(Cc4ccc(S(=O)(=O)F)cc4)CC3)n2)n[nH]1 (stereo unspecified)", "MEASURED PROPERTY": "pIC50", "MEASUREMENT": "< 4.52"}
{"COMPOUND": "C#CCNC(=O)c1cc(Nc2cc(C)[nH]n2)nc(N2CCN(Cc3ccc(S(=O)(=O)F)cc3)CC2)n1", "MEASURED PROPERTY": "pIC50", "MEASUREMENT": "< 4.52"}

Prompt: Consider the compound CCNC(=O)c1cc(Nc2cc(C)[nH]n2)nc(N2CCN(Cc3ccc(S(=O)(=O)F)cc3)CC2)n1 and give its measured pIC50.
Completion: < 4.52

Prompt: Consider the compound C#CCNC(=O)c1cc(Nc2cc(C3CC3)[nH]n2)nc(N2CCN(Cc3ccc(S(=O)(=O)F)cc3)CC2)n1 and give its measured pIC50.
Completion: 4.87

Prompt: Consider the compound O=C(NCCNC(=O)c1cc(Nc2cc(C3CC3)[nH]n2)nc(N2CCN(Cc3ccc(S(=O)(=O)F)cc3)CC2)n1)OC1CC/C=C/CCC1 (stereo unspecified) and give its measured pIC50.
Completion: < 4.52

---

- SYSTEM UNDER TEST: UniProt Q13043
- Sequence (Q13043 whole entry): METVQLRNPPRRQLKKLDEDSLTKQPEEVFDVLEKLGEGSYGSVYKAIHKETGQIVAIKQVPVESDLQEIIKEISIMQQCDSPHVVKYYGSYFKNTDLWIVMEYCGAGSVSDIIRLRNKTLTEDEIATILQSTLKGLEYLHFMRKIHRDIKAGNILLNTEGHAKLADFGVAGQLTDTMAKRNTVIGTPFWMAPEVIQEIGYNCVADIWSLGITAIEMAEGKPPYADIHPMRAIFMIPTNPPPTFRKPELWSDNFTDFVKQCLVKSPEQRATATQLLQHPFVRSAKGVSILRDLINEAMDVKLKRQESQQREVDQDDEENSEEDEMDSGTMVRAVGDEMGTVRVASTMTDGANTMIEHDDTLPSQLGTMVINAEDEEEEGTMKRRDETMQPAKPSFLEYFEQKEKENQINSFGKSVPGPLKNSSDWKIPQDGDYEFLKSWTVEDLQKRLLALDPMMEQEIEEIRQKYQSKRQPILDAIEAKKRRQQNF
- MEASUREMENT PROTOCOL: pIC50, kinobeads binding competition
- SETTINGS: cell material: Lysate mix
So basically: pIC50 at 6 or higher? That is YES. Lower than 6? That is NO.

Prompt: Decide: is the reported value of pIC50 for O=C(NCCNC(=O)c1cc(Nc2cc(C3CC3)[nH]n2)nc(N2CCN(Cc3ccc(S(=O)(=O)F)cc3)CC2)n1)OC1CC/C=C/CCC1 (stereo unspecified) equal to or greater than 6?
Completion: NO

Prompt: Decide: is the reported value of pIC50 for Cc1cc(Nc2cc(C(=O)NCCNC(=O)OC3CC/C=C/CCC3)nc(N3CCN(Cc4ccc(S(=O)(=O)F)cc4)CC3)n2)n[nH]1 (stereo unspecified) equal to or greater than 6?
Completion: NO

Prompt: Decide: is the reported value of pIC50 for C#CCNC(=O)c1cc(Nc2cc(C3CC3)[nH]n2)nc(N2CCN(Cc3ccc(S(=O)(=O)F)cc3)CC2)n1 equal to or greater than 6?
Completion: YES

Prompt: Decide: is the reported value of pIC50 for CCNC(=O)c1cc(Nc2cc(C)[nH]n2)nc(N2CCN(Cc3ccc(S(=O)(=O)F)cc3)CC2)n1 equal to or greater than 6?
Completion: NO

---

- SYSTEM UNDER TEST: NEK9 (UniProt Q8TD19)
- Sequence (Q8TD19 whole entry): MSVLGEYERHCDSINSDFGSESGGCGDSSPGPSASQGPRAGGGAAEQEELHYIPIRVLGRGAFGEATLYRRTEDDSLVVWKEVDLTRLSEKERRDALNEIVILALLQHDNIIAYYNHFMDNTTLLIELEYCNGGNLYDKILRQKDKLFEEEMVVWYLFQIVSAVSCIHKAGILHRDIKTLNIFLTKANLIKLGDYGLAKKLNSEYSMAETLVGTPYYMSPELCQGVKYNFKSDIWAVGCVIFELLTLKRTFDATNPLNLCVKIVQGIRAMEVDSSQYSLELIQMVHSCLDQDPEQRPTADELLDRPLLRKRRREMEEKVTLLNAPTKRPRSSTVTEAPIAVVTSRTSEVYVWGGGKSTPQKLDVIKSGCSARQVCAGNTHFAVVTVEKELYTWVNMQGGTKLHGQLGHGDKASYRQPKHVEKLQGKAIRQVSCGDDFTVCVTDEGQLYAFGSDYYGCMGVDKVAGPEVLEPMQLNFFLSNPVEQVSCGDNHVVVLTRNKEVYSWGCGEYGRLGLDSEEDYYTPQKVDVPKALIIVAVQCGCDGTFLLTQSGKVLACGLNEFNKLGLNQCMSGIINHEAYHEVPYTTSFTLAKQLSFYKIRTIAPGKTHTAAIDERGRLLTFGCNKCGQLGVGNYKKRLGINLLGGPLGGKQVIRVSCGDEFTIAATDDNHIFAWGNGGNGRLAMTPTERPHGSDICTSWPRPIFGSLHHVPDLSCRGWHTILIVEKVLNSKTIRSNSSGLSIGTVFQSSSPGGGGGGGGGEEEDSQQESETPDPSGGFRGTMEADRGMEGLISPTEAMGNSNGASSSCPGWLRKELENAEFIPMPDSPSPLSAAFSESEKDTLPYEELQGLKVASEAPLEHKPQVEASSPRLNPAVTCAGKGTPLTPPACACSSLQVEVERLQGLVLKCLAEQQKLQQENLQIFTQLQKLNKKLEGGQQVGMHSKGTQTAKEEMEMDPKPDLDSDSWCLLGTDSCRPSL
- MEASUREMENT PROTOCOL: pIC50, kinobeads binding competition
- SETTINGS: cell material: Lysate mix
MEASURED PROPERTY: pIC50
Form rule: numeric answer, no unit written next to it.

Take a look at these entries with their results.
{"COMPOUND": "O=C(NCCNC(=O)c1cc(Nc2cc(C3CC3)[nH]n2)nc(N2CCN(Cc3ccc(S(=O)(=O)F)cc3)CC2)n1)OC1CC/C=C/CCC1 (stereo unspecified)", "MEASURED PROPERTY": "pIC50", "MEASUREMENT": 5.56}
{"COMPOUND": "CCNC(=O)c1cc(Nc2cc(C3CC3)[nH]n2)nc(N2CCN(Cc3ccc(S(=O)(=O)F)cc3)CC2)n1", "MEASURED PROPERTY": "pIC50", "MEASUREMENT": 7.29}

Prompt: Consider the compound CCNC(=O)c1cc(Nc2cc(C)[nH]n2)nc(N2CCN(Cc3ccc(S(=O)(=O)F)cc3)CC2)n1 and give its measured pIC50.
Completion: 7.27

Prompt: Consider the compound Cc1cc(Nc2cc(C(=O)NCCNC(=O)OC3CC/C=C/CCC3)nc(N3CCN(Cc4ccc(S(=O)(=O)F)cc4)CC3)n2)n[nH]1 (stereo unspecified) and give its measured pIC50.
Completion: 5.2

Prompt: Consider the compound C#CCNC(=O)c1cc(Nc2cc(C3CC3)[nH]n2)nc(N2CCN(Cc3ccc(S(=O)(=O)F)cc3)CC2)n1 and give its measured pIC50.
Completion: 7.48

Prompt: Consider the compound C#CCNC(=O)c1cc(Nc2cc(C)[nH]n2)nc(N2CCN(Cc3ccc(S(=O)(=O)F)cc3)CC2)n1 and give its measured pIC50.
Completion: 6.52
